Tested on: Staphylococcus aureus
Protocol: Antibacterial activity against methicillin resistant Staphylococcus aureus ATCC 43300 assessed as reduction in microbial growth after 16 to 18 hrs by microbroth dilution method
Type: functional
Experimental conditions: time 16-18 hrs
Endpoint name: MIC (µg/mL)
Give just the numeric value; µg/mL need not be written.

Reference set, count: 10
# Compound, MIC (µg/mL)
data = [
    ("CC(C)=CCc1c(OC2CCCC2)cc(/C=C/c2ccc(F)cc2)c(C(=O)O)c1O", 2),
    ("CCOc1cc(/C=C/c2ccc(F)cc2)c(C(=O)O)c(O)c1CC=C(C)C", 2),
    ("CC(C)=CCc1c(OC2CCOCC2)cc(/C=C/c2ccc(F)cc2)c(C(=O)O)c1O", 1),
    ("CC(C)=CCc1c(OCC2CC2)cc(/C=C/c2ccc(C(F)(F)F)cc2)c(C(=O)O)c1O", 2),
    ("CC(C)=CCc1c(OCCF)cc(/C=C/c2ccc(F)cc2)c(C(=O)O)c1O", 4),
    ("CC(C)=CCc1c(OC2CCC2)cc(/C=C/c2ccc(F)cc2)c(C(=O)O)c1O", 2),
    ("NC[C@H]1O[C@H](O[C@H]2[C@H](O)[C@@H](O[C@H]3O[C@H](CO)[C@@H](O)[C@H](N)[C@H]3O)[C@H](N)C[C@@H]2N)[C@H](N)[C@@H](O)[C@@H]1O", 128),
    ("CC(C)=CCc1c(OC2CCCCC2)cc(/C=C/c2ccc(C(F)(F)F)cc2)c(C(=O)O)c1O", 1),
    ("CCC(C)Oc1cc(/C=C/c2ccc(C(F)(F)F)cc2)c(C(=O)O)c(O)c1CC=C(C)C (configuration not stated)", 1),
    ("CC(C)=CCc1c(OC2CCC2)cc(/C=C/c2ccc(C(F)(F)F)cc2)c(C(=O)O)c1O", 1),
]

Shift focus to the following entry.
// returns reported MIC for input CCC(C)Oc1cc(/C=C/c2ccc(F)cc2)c(C(=O)O)c(O)c1CC=C(C)C (configuration not stated)
2

---

Test system: Staphylococcus aureus
Protocol: Antibacterial activity against methicillin resistant Staphylococcus aureus ATCC49025 assessed as reduction in microbial growth after 16 to 18 hrs by microbroth dilution method
Type: functional
Experimental conditions: time 16-18 hrs
Listed here are compounds together with their documented MIC.
Give just the numeric value; µg/mL need not be written.

Reference set, count: 4
# Compound, Unit info, MIC
measured = [
    ("CC(C)=CCc1c(OCCC(F)(F)F)cc(/C=C/c2ccc(C(F)(F)F)cc2)c(C(=O)O)c1O", "µg/mL", 4),
    ("COc1cc(/C=C/c2ccccc2)c(C(=O)O)c(O)c1CC=C(C)C", "µg/mL", 8),
    ("CC(C)=CCc1c(OCC(F)(F)F)cc(/C=C/c2ccc(C(F)(F)F)cc2)c(C(=O)O)c1O", "µg/mL", 2),
    ("CC(C)=CCc1c(OC2CCCCC2)cc(/C=C/c2ccc(F)cc2)c(C(=O)O)c1O", "µg/mL", 4),
]

Shift focus to the following entry.
// returns reported MIC for input CCCC(CC)Oc1cc(/C=C/c2ccc(F)cc2)c(C(=O)O)c(O)c1CC=C(C)C (stereo not given)
2

---

System: Staphylococcus aureus
Protocol: Antibacterial activity against methicillin resistant Staphylococcus aureus ATCC 43300 assessed as reduction in microbial growth after 16 to 18 hrs by microbroth dilution method
Assay type: functional
Experimental conditions: time 16-18 hrs
Listed here are compounds together with their documented MIC.
Give just the numeric value; µg/mL need not be written.

Reference set, count: 3
# Item smiles, Unit info, Reading
measured = [
    ("CC(C)=CCc1c(OC(C)C)cc(/C=C/c2ccc(C(F)(F)F)cc2)c(C(=O)O)c1O", "µg/mL", 1),
    ("CC(C)=CCc1c(OCC(F)F)cc(/C=C/c2ccc(F)cc2)c(C(=O)O)c1O", "µg/mL", 4),
    ("CC(C)=CCc1c(OCCCF)cc(/C=C/c2ccc(F)cc2)c(C(=O)O)c1O", "µg/mL", 4),
]

// returns reported MIC for input CC(C)=CCc1c(OCCF)cc(/C=C/c2ccc(C(F)(F)F)cc2)c(C(=O)O)c1O
2

// returns reported MIC for input CC(C)=CCc1c(OCC(F)F)cc(/C=C/c2ccc(C(F)(F)F)cc2)c(C(=O)O)c1O
2

// returns reported MIC for input CC(C)=CCc1c(OCCC(F)(F)F)cc(/C=C/c2ccc(C(F)(F)F)cc2)c(C(=O)O)c1O
2

// returns reported MIC for input CCn1cc(C(=O)O)c(=O)c2cc(F)c(N3CCNCC3)cc21
32

// returns reported MIC for input COc1cc(/C=C/c2ccccc2)c(C(=O)O)c(O)c1CC=C(C)C
16

// returns reported MIC for input CC(C)=CCc1c(OCc2ccccc2)cc(/C=C/c2ccc(F)cc2)c(C(=O)O)c1O
32
